Known apparent KD of MS2 coat protein of a selection of sequences
# Test system: MS2 coat protein
# experiment summary: apparent KD of MS2 coat protein; designed switch direction (-1 OFF switch, 1 ON switch): -1; higher = weaker reporter binding
# test conditions: input ligand: FMN 200 uM

# input sequence, tested target, unit text, apparent KD of MS2 coat protein
rows = [
    ("UUGUUGUAUGUAGGAUAUGCAUAUUGUUAUUAUGCAGAAGGACAUGAGGAUCACCCAUGUAUAUUACUAUUAUGUACUAUAUAU [MOD of Hoglahoo's a different Title] (Eterna round: R96, puzzle: Exclusion NG 1)", "MS2 coat protein", "nM", 106),
    ("ACGAUGACAGAAAGAUGUCAAAAGACAUGAGGAUCACCCAUGUAGGAUAUGGCUACGAAAAGUAGUCAGAAGGACAUGUCAUCA [Omei Exc(NG) 3 Av1] (Eterna round: R96, puzzle: Exclusion NG 3)", "MS2 coat protein", "nM", 16.2),
]

* * *

# Test system: MS2 coat protein
# experiment summary: apparent KD of MS2 coat protein; designed switch direction (-1 OFF switch, 1 ON switch): -1; higher = weaker reporter binding
# test conditions: Eterna round: R95; input ligand: microRNA oligo, concentration not stated
Known apparent KD of MS2 coat protein of a selection of sequences

# input sequence, tested target, apparent KD of MS2 coat protein, nM
rows = [
    ("AGUAGGUCUACCUUGGUGGAUCUGCAUUUUUGCAGGUGUACAUGAGGAUCACCCAUGUCCUCAUUUGCUCGUCUUAU [JL turnoff v2 99.30] (puzzle: Sensor v3, turn-off variant 2)", "MS2 coat protein", 629),
    ("AGAUGGCGAGGAUAUACAUGAGGAUCACCCAUGUGAGAAGAGAAAGUGAGGAAGAAAAGUAGAAGGCGCUGUCA [Mat - Exclusion 3 - Mod of Salish D21] (puzzle: Exclusion 3)", "MS2 coat protein", 60.9),
    ("AAUAACAGAGGAUAUACUAUUUUAUGUGUUUAUUGUUUUGAACAUGAGGAUCACCCAUGUAGAAGGCUGAGUAA [JMF 38] (puzzle: Exclusion 2)", "MS2 coat protein", 27.5),
    ("GUCCUCAUGGCGCCUAAACACAUGAGGAUCACCCAUGUACAGGCUUUUUGCCGUCUUAUAAUAAAACCGAGGAUGCG [Reanaor] (puzzle: Sensor v3, turn-off variant 1)", "MS2 coat protein", 157),
    ("UCCUUACAUGAGGAUCACCCAUGUCAGGAUAUCUCCACACUGCGCUUGCGCAGUGUAUAGAGAAGGGACGGGCU [JL ViennaUCT Aner mod 7] (puzzle: Exclusion 1)", "MS2 coat protein", 28.5),
]

* * *

# Tested on: MS2 coat protein
# experiment summary: apparent KD of MS2 coat protein, switch ON state; designed switch direction (-1 OFF switch, 1 ON switch): -1; higher = weaker reporter binding
# test conditions: FMN input: 0 or 200 uM; Eterna round: R93 (includes R88 designs)

# input sequence, apparent KD of MS2 coat protein, nM
records = [
    ("AAAAAACAUGAGGAUCACCCAUGUGAGGAUAUGCGAAAUAAAAAUAAAAUAAUAAAAAGCAGAAGGCACAAAAA [Amethyst 64]", 30.1),
    ("ACGUACUGAGGAUAUACGAACAUGUCAAAAGACGUGAAGGGACAUGAGGAUCACCCAUGUAGAAGGCAGUACGA [Mat - Exclusion 2 - JL mod - D7]", 60.7),
    ("AAGGUUCGAGGAUAUACAUAGAUACAGAUACAUGUAGACGUACAUGAGGAUCACCCAUGUAGAAGGCGAAUAUA [AJ 25]", 69.7),
]

* * *

# System: MS2 coat protein
# experiment summary: apparent KD of MS2 coat protein; designed switch direction (-1 OFF switch, 1 ON switch): 1; higher = weaker reporter binding
# test conditions: input ligand: microRNA oligo, concentration not stated
If the reported apparent KD of MS2 coat protein equals or exceeds 90 nM, assign yes. If not, assign no.

# input sequence, category label
measured = [
    ("UUACUCAUGUAAGGAUAUGCAGCCGAAACGGCUGCAGAAGGUACUAUAAUACAUGAGGAUCACCCAUGUCUCUAUUAUUUAGUU [Mat - Same State NG 1 - JL mod - D94] (Eterna round: R96, puzzle: Same State NG 1)", "no"),
    ("AGGCUGAGUCGAGGAUAUGAUCUUCAUAUAAUAACAUGAGGAUCACCCAUGUAUAAUUACAUGGAUCAGAAGGCGACUCAGCCA [SSNG2/13-B1] (Eterna round: R96, puzzle: Same State NG 2)", "yes"),
    ("UUUAGAUCGCGAGGAUAUCGCGAGGAUCACCCGUGAGAAGGCGCAGAGCCGAGGAUCACCCGGCUGAUCCUGAGGAGGAGGUCU (Eterna round: R96, puzzle: Same State NG 1)", "yes"),
    ("AAAAUUGAAUUACAUCUGCUCGUCAUACAACAUGAGGAUCACCCAUGUAACAUCAAACAACCAACCAAACACAAAUC [Ceeslage] (Eterna round: R96, puzzle: Sensor for hsa-mir-208a)", "no"),
    ("AUAGUUUCCGAAGGAUAUGAUGAGGAUCACCCAUCAGAAGGUUGGCUAUUGGGCUGACAUGAGGAUCACCCAUGUUUCGGUGUU (Eterna round: R96, puzzle: Same State NG 1)", "no"),
    ("AGGCUCAGACUAGGAUAUAUGUGGUCACAUGAGGAUCACCCAUGUCUCGAGCUUCGGCUCGAGGCAUAGAAGGAGUCUGAGCCA [SSNG2/5-D1] (Eterna round: R96, puzzle: Same State NG 2)", "no"),
    ("UGGUACAUGGGAGGAUAUCUCAUGGUGACAUGAGGAUCACCCAUGUAGUUGGAGCCGAAAGGCAGAGAGAAGGCCCAUGUACCU [JL SSNG1 3.77] (Eterna round: R96, puzzle: Same State NG 2)", "no"),
    ("GCUCGAAUCACAGCCAACAUGAGGAUCACCCAUGUAUGUUGGUAGGAUAUCGUUUCUAAGGGAAACGAGAAGGGCCGAACGAGC [SameState NG3 #10] (Eterna round: R96, puzzle: Same State NG 3)", "yes"),
]

* * *

Known apparent KD of MS2 coat protein of a selection of sequences
# System: MS2 coat protein
# experiment summary: apparent KD of MS2 coat protein; designed switch direction (-1 OFF switch, 1 ON switch): -1; higher = weaker reporter binding
# test conditions: input ligand: FMN 200 uM
measurement type: apparent KD of MS2 coat protein

# input sequence, tested target, measurement type, val
rows = [
    ("GAAAAGGUAGAGGAUAUUUCAGAUCAAAGCUGCAAAGAAGGCUGCACAUGAGGAUCACCCAUGUGGUCUUUAAA [Mod of Quesina 10 - Jieux - Exclusion 6] (Eterna round: R97, puzzle: Exclusion 6)", "MS2 coat protein", "apparent KD of MS2 coat protein", "70.1 nM"),
    ("GGGUGUGAAGGAUAUACAUGAGGAUCACCCAUGUGAGAGGAGGAGGUUGAGGAGGUUGGUAGAAGGUCAGGAGG [JR_Exclusion3_Sub011] (Eterna round: R96, puzzle: Exclusion 3)", "MS2 coat protein", "apparent KD of MS2 coat protein", "219 nM"),
    ("GGUCAUCAAGUCAGGAUAUCGUCAAAUCAAUCAGGCGAGAAGGGACAUGAGGAUCACCCAUGUCGACUCAUCAG [Ex4 #5] (Eterna round: R97, puzzle: Brourd's mod of Exclusion 4)", "MS2 coat protein", "apparent KD of MS2 coat protein", "123 nM"),
    ("UAUUAGCAAGCGAGAUCCCACAUGAGGAUCACCCAUGUGCUCGUCUUAUAAAGUACUGUGACGAAAGUCACGGUACG [Mat - Sensor, turn-off var - Eli Mod - D10] (Eterna round: R97, puzzle: Sensor, turn-off variant 1)", "MS2 coat protein", "apparent KD of MS2 coat protein", "15.1 nM"),
    ("UCCGCGCGCUUGCGCGCGGACAUGAGGAUCACCCAUGUCGGGCUUUUUGCUCGUUUUGUUGCGCGCGUUCGCGCGCG [Revision to Olbi_3 by Sunset] (Eterna round: R97, puzzle: Sensor, turn-off variant 1)", "MS2 coat protein", "apparent KD of MS2 coat protein", "89.1 nM"),
    ("UAAUAAAGUGUGAGGAUAUGCUGGUCGAUAGAUCAGCAGAAGGCACAUGAGGAUCACCCAUGUAAUAUAUUUUA [Mat - Exclusion 4 - JL Mod - D46] (Eterna round: R96, puzzle: Brourd's mod of Exclusion 4)", "MS2 coat protein", "apparent KD of MS2 coat protein", "238 nM"),
    ("UUUAAGUCAGGAUAUACAUGAGGAUCACCCAUGUAAAAUUUUAAUUUAAUUUGAAGGUGUAGAAGGGACAAAUU [Ex3 #37] (Eterna round: R97, puzzle: Exclusion 3)", "MS2 coat protein", "apparent KD of MS2 coat protein", "23 nM"),
    ("CUUGUUUAUGUAGGAUAUGCCUGGCGUGCCUUUGCAGAAGGACAUGAGGAUCACCCAUGUAACAUGAGGCUCACCCUUGUCGCC [salish99_ExNG1_r04_116] (Eterna round: R96, puzzle: Exclusion NG 1)", "MS2 coat protein", "apparent KD of MS2 coat protein", "146 nM"),
    ("GGGCCCGGAGGAUAUACAUGAGGAUCACCCAUGUAGGGCUCGGGUAUUCUCGGGCUCUGUAGAAGGCCGGGCCC [-39.6, -36.7 kcal, A 19%, 5,0] (Eterna round: R97, puzzle: Exclusion 3)", "MS2 coat protein", "apparent KD of MS2 coat protein", "17.5 nM"),
    ("AGUGCGUCAGGAUAUUCUAUUAAUUACAUGAGGAUCACCCAUGUGAAUGGACAAGGGUGUGAAGAAGGGACGUGCG [Omei Ex5 A17g] (Eterna round: R97, puzzle: Exclusion 5)", "MS2 coat protein", "apparent KD of MS2 coat protein", "360 nM"),
    ("UAUUAGCAAGCAACUGGGUACAUGAGGAUCACCCAUGUGCUCGUCUUAUAAGGUACUGUUACGAAAGUCACGGUACC [mod--Eli12] (Eterna round: R97, puzzle: Sensor, turn-off variant 1)", "MS2 coat protein", "apparent KD of MS2 coat protein", "17.3 nM"),
    ("GAGCAGCCGAUAGGAUAUUCCGAGCUAAAGAGCAGUAGGACAUGAGGAUCACCCAUGUGUGCAUGGAAGAAGGGUCACUUCCAG [Eternabot solution 23] (Eterna round: R96, puzzle: Exclusion NG 2)", "MS2 coat protein", "apparent KD of MS2 coat protein", "25.8 nM"),
    ("CAAACCAGAGGAUAUGCGCAUAGAUCAGACUUUGUUUCUGAACAUGAGGAUCACCCAUGUAGAAGGCUGUAAAA [Ex2 #83] (Eterna round: R97, puzzle: Exclusion 2)", "MS2 coat protein", "apparent KD of MS2 coat protein", "28.1 nM"),
    ("GGAUCGAAUGUGAGGAUAUGCUGGUCCUUGGAUCAGCAGAAGGCACAUGAGGAUCACCCAUGUGAUAUCGAUCC [Eli bmx4 4.71] (Eterna round: R97, puzzle: Brourd's mod of Exclusion 4)", "MS2 coat protein", "apparent KD of MS2 coat protein", "443 nM"),
    ("UACAUGAGGAUCACCCAUGUUUUGUCGUGUAUGGUAUUUAUCUAGGAUAUCAAUGUAGUUAUUUAUGAGAAGGAGAAUAUUAAU [JMF's solution 41] (Eterna round: R96, puzzle: Exclusion NG 3)", "MS2 coat protein", "apparent KD of MS2 coat protein", "43 nM"),
    ("GCAGCGUAUGUAGGAUAUCGGUCAGUUUCUGAUCGAGAAGGACAUGAGGAUCACCCAUGUAUUAUCAUGCGUGAGCAUGGCUGC [JL ENG1 3.71] (Eterna round: R96, puzzle: Exclusion NG 1)", "MS2 coat protein", "apparent KD of MS2 coat protein", "499 nM"),
    ("UGAUCUAGCGGAGGAUAUACAUGAGGAUCACCCAUGUAGAAUCCAUGACCGUAGUCGUGGAUCGUGUAGAAGGCCGCUAGAUCU [JL ENG2 3.71] (Eterna round: R96, puzzle: Exclusion NG 2)", "MS2 coat protein", "apparent KD of MS2 coat protein", "21.8 nM"),
    ("GCCGUCAGUGUGAGGAUAUGCCUAUGGAUACGUAGGCAGAAGGCACAUGAGGAUCACCCAUGUCCAAAGACGGC [JL-BMX4-4.30 Eli mod] (Eterna round: R97, puzzle: Brourd's mod of Exclusion 4)", "MS2 coat protein", "apparent KD of MS2 coat protein", "520 nM"),
]
